Measured values drawn from patent US20230099344A1 for this set.

MEASURED_TARGET: IRAK-4 (Homo sapiens, UniProt Q9NWZ3)
EXPERIMENT: IRAK-4 ELISA, PBMC degradation
Type: cell-based
Design: endogenous in cells; host or cells: PBMC
CONDITION_PARAMETERS: treated overnight
Catalogue of Dmax readings, one per entry.

Use the examples below as a reference point.
O=C1CCC(N2C(=O)c3ccc(N4CCC[C@@H](CN5CCC(n6cc7cc(NC(=O)c8cnn9cccnc89)c(OCC8CC8)cc7n6)CC5)C4)cc3C2=O)C(=O)N1 (some centres unmarked)    ≥ 90%
COc1cc(N2CC(CN3CCC(N4Cc5cc(NC(=O)c6cnn7cccnc67)c(OC(C)C)cc5C4=O)CC3)C2)cc2c1C(=O)N(C1CCC(=O)NC1=O)C2=O (centres unmarked)    ≥ 90%

Lab note: next compound to report on.
Query: Let me know recorded Dmax for COc1cc2nn(C3CCN(CC4(F)CN(c5ccc6c(c5)C(=O)N(C5CCC(=O)NC5=O)C6=O)C4)CC3)cc2cc1NC(=O)c1cnn2cccnc12 (centres unmarked) , thanks.
Reply: ≥ 90%

###

MEASURED_TARGET: IRAK-4 (Homo sapiens, UniProt Q9NWZ3)
EXPERIMENT: IRAK-4 ELISA, OCI-Ly10 degradation
Type: cell-based
Parameters: endogenous in cells
CONDITION_PARAMETERS: OCI-Ly10 cells, treated overnight
PROPERTY: DC50

Use the examples below as a reference point.
CC(C)Oc1cc2c(cc1NC(=O)c1cnn3cccnc13)CN(C1CCN(CC3CCN(c4ccc5c(c4)C(=O)N(C4CCC(=O)NC4=O)C5=O)CC3)CC1)C2=O (stereo not drawn) [Example 1]    < 10 nM
O=C1CCC(N2Cc3cc(CCN4CCC(N5Cc6cc(NC(=O)c7cnn8cccnc78)c(N7CCOCC7)cc6C5=O)CC4)ccc3C2=O)C(=O)N1 (stereo not drawn) [Example 36]    < 10 nM

Query: Let me know recorded DC50 for COc1cc2nn([C@H]3CC[C@@H](OC4CN(c5ccc6c(c5)C(=O)N(C5CCC(=O)NC5=O)C6=O)C4)CC3)cc2cc1NC(=O)c1cnn2cccnc12 (stereo partly drawn) [Example 211] , thanks.
Reply: ≥ 100 nM

###

MEASURED_TARGET: IRAK-4 (Homo sapiens, UniProt Q9NWZ3)
Sequence (Q9NWZ3 1-460): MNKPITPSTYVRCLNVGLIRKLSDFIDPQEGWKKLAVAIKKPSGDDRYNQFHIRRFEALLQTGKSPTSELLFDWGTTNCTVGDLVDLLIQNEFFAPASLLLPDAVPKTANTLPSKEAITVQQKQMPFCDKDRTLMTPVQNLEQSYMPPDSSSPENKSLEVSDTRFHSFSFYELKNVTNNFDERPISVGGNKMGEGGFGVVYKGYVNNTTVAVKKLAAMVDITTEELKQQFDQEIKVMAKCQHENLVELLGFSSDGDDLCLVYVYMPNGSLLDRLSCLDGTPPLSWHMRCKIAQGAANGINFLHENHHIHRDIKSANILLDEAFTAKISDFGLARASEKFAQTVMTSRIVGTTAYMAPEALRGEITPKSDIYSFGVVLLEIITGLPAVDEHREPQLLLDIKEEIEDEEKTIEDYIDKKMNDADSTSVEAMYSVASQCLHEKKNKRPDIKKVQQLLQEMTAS
EXPERIMENT: IRAK-4 ELISA, PBMC degradation
Format: cell-based
Set-up: endogenous in cells; host or cells: PBMC
CONDITION_PARAMETERS: treated overnight
PROPERTY: Dmax

Use the examples below as a reference point.
O=C1CCC(N2C(=O)c3ccc(N4CC(CN5CCC(n6cc7cc(NC(=O)c8cnn9cccnc89)c(OCC(F)F)cc7n6)CC5)C4)cc3C2=O)C(=O)N1 (stereo not drawn)    ≥ 90%
COC1(CN2CCC(n3cc4cc(NC(=O)c5cnn6cccnc56)c(OCC5CC5)cc4n3)CC2)CN(c2ccc3c(c2)C(=O)N(C2CCC(=O)NC2=O)C3=O)C1 (stereo not drawn)    80 to 90%
O=C1CCC(N2Cc3cc(OCCOCCN4CCC(n5cc6cc(NC(=O)c7cnn8cccnc78)c(OCC7CC7)cc6n5)CC4)ccc3C2=O)C(=O)N1 (stereo not drawn)    ≥ 90%
O=C1CCC(N2Cc3cc(CCN4CCC(N5Cc6cc(NC(=O)c7cnn8cccnc78)c(N7CCOCC7)cc6C5=O)CC4)ccc3C2=O)C(=O)N1 (stereo not drawn)    < 70%
COc1cc2nn([C@H]3CC[C@H](N(C)C4CN(c5ccc6c(c5)CN(C5CCC(=O)NC5=O)C6=O)C4)CC3)cc2cc1NC(=O)c1cnn2cccnc12 (stereo partly drawn)    ≥ 90%

Query: Let me know recorded Dmax for O=C1CCC(N2Cc3cc(N4CCC(CN5CCC(n6cc7cc(NC(=O)c8cnn9cccnc89)c(OCC(F)F)cc7n6)CC5)CC4)ccc3C2=O)C(=O)N1 (stereo not drawn) , thanks.
Reply: 80 to 90%
